Numbers sourced from ChEMBL document CHEMBL4229569.

# Experiment: Cmax in Sprague-Dawley rat at 20 mg/kg, po by LC-MS/MS analysis
# Assay type: ADME, organism-based
# Design: dose 20 mg/kg, route oral
# Particulars: in vivo
Item-by-item account of Cmax
The answer is to be given in ng/mL; state only the numeric part.

Cc1nnc(C(C)C)n1[C@@H]1C[C@H]2CC[C@@H](C1)N2CC[C@H](NC(=O)C1CCC(F)(F)CC1)c1ccsc1 306

**Query** # input compound: "Cc1nnc(C(C)C)n1[C@@H]1C[C@H]2CC[C@@H](C1)N2CC[C@H](NC(=O)C1CCCCC1)c1cccs1" ; wanted: its Cmax
**Result** 631

**Query** Tell me the measured Cmax of "Cc1ccc([C@H](CCN2[C@@H]3CC[C@H]2C[C@H](n2c(C)nnc2C(C)C)C3)NC(=O)C2CCC(F)(F)CC2)s1" , please.
**Result** 580

**Query** Query (compound): "Cc1nnc(C(C)C)n1[C@@H]1C[C@H]2CC[C@@H](C1)N2CC[C@H](NC(=O)C1CCCC1)c1cccs1" ; field requested: Cmax
**Result** 436

**Query** Which value of Cmax has been reported for "Cc1nnc(C(C)C)n1[C@@H]1C[C@H]2CC[C@@H](C1)N2CC[C@H](NC(=O)C1CCC(F)(F)CC1)c1cccs1" in the records?
**Result** 266

---

# Experiment: in vitro
# Particulars: human, TZM-bl cells
# Description: Therapeutic index, ratio of CC50 for human TZM-bl cells to EC50 for CCR5-dependent HIV1 SF162 infected in human TZM-bl cells
Measurement Type: selectivity ratio

Below, 3 molecules whose answers are already recorded.
Cc1ccc([C@H](CCN2[C@@H]3CC[C@H]2C[C@H](n2c(C)nnc2C(C)C)C3)NC(=O)C2CCC(F)(F)CC2)s1 > 17000
Cc1nnc(C(C)C)n1[C@@H]1C[C@H]2CC[C@@H](C1)N2CC[C@H](NC(=O)C1CCC(F)(F)CC1)c1csc2ccccc12 119
Cc1nnc(C(C)C)n1[C@@H]1C[C@H]2CC[C@@H](C1)N2CC[C@H](NC(=O)C1CCC(F)(F)CC1)c1cccnc1 > 65.8

**Query** Look up selectivity ratio for this molecule: "Cc1nnc(C(C)C)n1[C@@H]1C[C@H]2CC[C@@H](C1)N2CC[C@H](NC(=O)C1CCCCC1)c1cccs1"
**Result** > 18000

**Query** Reported selectivity ratio for "Cc1nnc(C(C)C)n1[C@@H]1C[C@H]2CC[C@@H](C1)N2CC[C@H](NC(=O)C1CCC(F)(F)CC1)c1ccsc1" : what is it?
**Result** > 130000

**Query** What does the record list as selectivity ratio for "Cc1nnc(C(C)C)n1[C@@H]1C[C@H]2CC[C@@H](C1)N2CC[C@H](NC(=O)C1CCC(F)(F)CC1)c1ccc(F)s1" ?
**Result** > 385

**Query** Can you share its selectivity ratio? I mean this molecule: "Cc1nnc(C(C)C)n1[C@@H]1C[C@H]2CC[C@@H](C1)N2CC[C@H](NC(=O)C1CCCC1)c1cccs1"
**Result** > 150000

**Query** Which measured selectivity ratio value corresponds to "Cc1nnc(C(C)C)n1[C@@H]1C[C@H]2CC[C@@H](C1)N2CC[C@H](NC(=O)C1CCC(F)(F)CC1)c1cccs1" ?
**Result** > 55000

---

Some compounds, each annotated with its measured MRT.
# Experiment: MRT in dog at 3 mg/kg, iv by LC-MS/MS analysis
# Type: ADME, organism-based, Canis lupus familiaris
# Particulars: in vivo
Numeric answer only, unit h assumed.

Cc1nnc(C(C)C)n1[C@@H]1C[C@H]2CC[C@@H](C1)N2CC[C@H](NC(=O)C1CCCC1)c1cccs1 0.7

Now consider a different compound.
**Query** For the compound shown here, "Cc1nnc(C(C)C)n1[C@@H]1C[C@H]2CC[C@@H](C1)N2CC[C@H](NC(=O)C1CCC(F)(F)CC1)c1ccsc1" , give the reported MRT.
**Result** 1.6

---

# Experiment: Tmax in dog at 2 mg/kg, po by LC-MS/MS analysis
# Format: ADME, organism-based, Canis lupus familiaris
# Particulars: in vivo
Measurement Type: Tmax

**Query** What does the record list as Tmax for "Cc1nnc(C(C)C)n1[C@@H]1C[C@H]2CC[C@@H](C1)N2CC[C@H](NC(=O)C1CCC(F)(F)CC1)c1ccccc1" ?
**Result** 45 min

---

# Experiment: AUC (0 to infinity) in Sprague-Dawley rat at 10 mg/kg, iv by LC-MS/MS analysis
# Format: ADME, organism-based
# Set-up: dose 10 mg/kg, time infinity, route intravenous
# Particulars: in vivo
compounds and their reported AUC(0-inf)
Numeric only. Scale: ng·h/mL

Cc1ccc([C@H](CCN2[C@@H]3CC[C@H]2C[C@H](n2c(C)nnc2C(C)C)C3)NC(=O)C2CCC(F)(F)CC2)s1 2330
Cc1nnc(C(C)C)n1[C@@H]1C[C@H]2CC[C@@H](C1)N2CC[C@H](NC(=O)C1CCCCC1)c1cccs1 5110
Cc1nnc(C(C)C)n1[C@@H]1C[C@H]2CC[C@@H](C1)N2CC[C@H](NC(=O)C1CCC(F)(F)CC1)c1cccs1 7050
Cc1nnc(C(C)C)n1[C@@H]1C[C@H]2CC[C@@H](C1)N2CC[C@H](NC(=O)C1CCCC1)c1cccs1 2500

**Query** So what's the measured AUC(0-inf) for this one? "Cc1nnc(C(C)C)n1[C@@H]1C[C@H]2CC[C@@H](C1)N2CC[C@H](NC(=O)C1CCC(F)(F)CC1)c1ccsc1"
**Result** 4160

---

# Tested System: UniProt:P08684
# Sequence (P08684 whole entry): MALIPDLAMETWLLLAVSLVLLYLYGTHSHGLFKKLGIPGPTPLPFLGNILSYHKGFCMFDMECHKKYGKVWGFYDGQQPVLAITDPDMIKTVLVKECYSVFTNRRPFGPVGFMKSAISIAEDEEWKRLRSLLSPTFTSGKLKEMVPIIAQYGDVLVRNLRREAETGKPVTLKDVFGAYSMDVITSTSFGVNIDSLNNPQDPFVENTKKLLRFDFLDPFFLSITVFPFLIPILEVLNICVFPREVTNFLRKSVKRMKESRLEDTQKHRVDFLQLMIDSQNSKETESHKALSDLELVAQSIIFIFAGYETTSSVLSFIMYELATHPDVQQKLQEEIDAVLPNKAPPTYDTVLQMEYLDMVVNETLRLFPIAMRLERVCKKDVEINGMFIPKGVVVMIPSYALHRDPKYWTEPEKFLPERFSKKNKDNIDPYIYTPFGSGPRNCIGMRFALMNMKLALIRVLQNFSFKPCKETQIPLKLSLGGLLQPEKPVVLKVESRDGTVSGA
# Experiment: Inhibition of CYP3A4 (unknown origin) using testosterone as substrate
# Type: ADME
Measurement Type: IC50 (µM)
Output spec: scalar in µM, unitless text.

Cc1nnc(C(C)C)n1[C@@H]1C[C@H]2CC[C@@H](C1)N2CC[C@H](NC(=O)C1CCCCC1)c1cccs1 21.7

Then there is this compound:
**Query** What value of measured IC50 is listed for "Cc1ccc([C@H](CCN2[C@@H]3CC[C@H]2C[C@H](n2c(C)nnc2C(C)C)C3)NC(=O)C2CCC(F)(F)CC2)s1" ?
**Result** 23.4

---

# Experiment: Clearance in dog at 3 mg/kg, iv by LC-MS/MS analysis
# Format: ADME, organism-based, Canis lupus familiaris
# Particulars: in vivo
Each entry below carries its reported clearance.
The answer is to be given in mL/min/kg; state only the numeric part.

Cc1nnc(C(C)C)n1[C@@H]1C[C@H]2CC[C@@H](C1)N2CC[C@H](NC(=O)C1CCC(F)(F)CC1)c1ccsc1 5

Switching to the query record.
**Query** State the recorded clearance for this entry: "Cc1nnc(C(C)C)n1[C@@H]1C[C@H]2CC[C@@H](C1)N2CC[C@H](NC(=O)C1CCCC1)c1cccs1"
**Result** 46.7

---

Entries and their AUC(0-inf)
# Experiment: AUC (0 to infinity) in Sprague-Dawley rat at 20 mg/kg, po by LC-MS/MS analysis
# Type: ADME, organism-based
# Parameters: dose 20 mg/kg, route oral, time infinity
# Particulars: in vivo
Express your answer in ng·h/mL, writing the number without its unit.

**Query** Any idea what its AUC(0-inf) is? The molecule is "Cc1nnc(C(C)C)n1[C@@H]1C[C@H]2CC[C@@H](C1)N2CC[C@H](NC(=O)C1CCCC1)c1cccs1"
**Result** 1670

**Query** Fill in the blank: the reported AUC(0-inf) of "Cc1nnc(C(C)C)n1[C@@H]1C[C@H]2CC[C@@H](C1)N2CC[C@H](NC(=O)C1CCCCC1)c1cccs1" is ____.
**Result** 1510

**Query** Find the recorded AUC(0-inf) belonging to "Cc1nnc(C(C)C)n1[C@@H]1C[C@H]2CC[C@@H](C1)N2CC[C@H](NC(=O)C1CCC(F)(F)CC1)c1cccs1" and report it.
**Result** 1110

**Query** Dear colleague, I am looking for the recorded AUC(0-inf) of the following molecule: "Cc1ccc([C@H](CCN2[C@@H]3CC[C@H]2C[C@H](n2c(C)nnc2C(C)C)C3)NC(=O)C2CCC(F)(F)CC2)s1"
**Result** 1870

**Query** Dear colleague, I am looking for the recorded AUC(0-inf) of the following molecule: "Cc1nnc(C(C)C)n1[C@@H]1C[C@H]2CC[C@@H](C1)N2CC[C@H](NC(=O)C1CCC(F)(F)CC1)c1ccsc1"
**Result** 1260

---

# Experiment: Half life in Sprague-Dawley rat at 10 mg/kg, iv by LC-MS/MS analysis
# Format: ADME, organism-based
# Particulars: in vivo
Measurement Type: half-life (h)
# output: bare number, implied unit h

Example results:
Cc1nnc(C(C)C)n1[C@@H]1C[C@H]2CC[C@@H](C1)N2CC[C@H](NC(=O)C1CCCCC1)c1cccs1 0.31
Cc1nnc(C(C)C)n1[C@@H]1C[C@H]2CC[C@@H](C1)N2CC[C@H](NC(=O)C1CCC(F)(F)CC1)c1ccsc1 1.02
Cc1nnc(C(C)C)n1[C@@H]1C[C@H]2CC[C@@H](C1)N2CC[C@H](NC(=O)C1CCCC1)c1cccs1 1.31
Cc1nnc(C(C)C)n1[C@@H]1C[C@H]2CC[C@@H](C1)N2CC[C@H](NC(=O)C1CCC(F)(F)CC1)c1cccs1 0.77

Kindly consider the entry below.
**Query** So what does the record say about half-life for "Cc1ccc([C@H](CCN2[C@@H]3CC[C@H]2C[C@H](n2c(C)nnc2C(C)C)C3)NC(=O)C2CCC(F)(F)CC2)s1" ?
**Result** 1.6
